Values were extracted from the SangsterLogP compilation.

Hi there, I'd appreciate the recorded logP for every entry that follows.
assay protocol: method code SF, from DOI: 10.1016/0048-3575(88)90017-x
Lab note: jot down the number only; don't add units.

Prompt line: Bench note: what logP did `CC(=O)OCN1C(=O)c2cccc3cccc(c23)C1=O` show?
Response line: 2.34

Prompt line: What measured logP goes with CC(=O)OCN1C(=O)C2CC=CCC2C1=O (stereo not drawn) ?
Response line: 0.97

Prompt line: For the compound shown here, `CC(=O)OCN1C(=O)C=C(C)C1=O` , give the reported logP.
Response line: 0.45

----------
assay protocol: method code SF-HPLC, from DOI: 10.1016/s0223-5234(98)80037-8
assay conditions: pH 7.4
metric name: logD

Prompt line: Which logD is listed for COc1ccc2cc(C(C)C(=O)OCN3C(=O)c4ccccc4C3=O)ccc2c1 (stereo unspecified) ?
Response line: 5.03

----------
assay protocol: method code SF-HPLC, from DOI: 10.1016/j.ejps.2016.07.010, PMID: 27422078
assay conditions: pH 7.4
metric name: logD
Could you respond with only the numeric value?

Prompt line: Could you share which logD value was measured for Cc1cc(=O)c2c(O)cc(O)c(C3CCN(C)CC3OC(=O)C(C)(C)C)c2o1 (stereo unspecified) ?
Response line: 1.66

----------
assay protocol: method code SF-AS, from PMID: 5136171
Assign logP to each entry below.
In your answer, state the number alone without any accompanying words.

Prompt line: Given `CCOC(=O)c1cnc2cc(OCC(C)C)c(OCC(C)C)cc2c1O` , state its recorded logP.
Response line: 2.18

Prompt line: Using the record for `CCOC(=O)c1cnc2cc(OCCOC(C)C)c(OCC(C)C)cc2c1O` , report its logP.
Response line: 2.17

Prompt line: Field request: logP | item: `CCOC(=O)c1cnc2cc(OCCOC)c(OC)cc2c1O`
Response line: 1.36

Prompt line: Requested read-out: logP. Entry: `CCOC(=O)c1cnc2cc(OCc3ccccc3)c(OCCOC)cc2c1O`
Response line: 1.95

----------
assay protocol: method code SF-AS, from DOI: 10.1021/jm00371a026, PMID: 6425501
assay conditions: pH 7.4
Can you tell me logD for the items I'm about to list?
Response field accepts a number only; no unit should be typed.

Prompt line: Reported logD, molecule `CO[C@@]12[C@H](COC(N)=O)C3=C(C(=O)C(C)=C(Nc4nc(C)c(C)s4)C3=O)N1C[C@@H]1N[C@@H]12` : ____
Response line: 1.29

Prompt line: Quick one: logD for `CO[C@@]12[C@H](COC(N)=O)C3=C(C(=O)C(C)=C(Nc4ccccc4)C3=O)N1C[C@@H]1N[C@@H]12` ?
Response line: 1.3

Prompt line: I'd like to know its logD. The molecule in question is `CO[C@@]12[C@H](COC(N)=O)C3=C(C(=O)C(C)=C(Nc4ccc(C)nc4)C3=O)N1C[C@@H]1N[C@@H]12`
Response line: 0.59

Prompt line: Recorded logD of `CO[C@@]12[C@@H]3N[C@@H]3CN1C1=C(C(=O)C(Nc3nc(C)cs3)=C(C)C1=O)[C@@H]2COC(N)=O` , please.
Response line: 1.16

----------
Kindly state logD for each of the entries shown.
assay protocol: method code SF-RC, from DOI: 10.1002/ps.2780410303
assay conditions: pH 2.8
Please state the value as a number alone, without comment.

Prompt line: So what does the record say about logD for CCCc1cnc(C2=NC(C)(C(C)C)C(=O)N2)c(C(=O)O)c1 (configuration not stated) ?
Response line: 1.27

Prompt line: Endpoint output: logD of CSc1cnc(C2=NC(C)(C(C)C)C(=O)N2)c(C(=O)O)c1 (configuration not stated) . Value?
Response line: 0.75
